hemolysis at 1 h by entry:
assay: Hemolytic activity in human RBC assessed as maximal hemolysis at <= 32 ug/ml incubated for 1 hr by CO-ADD method; type: cell-based, Erythrocyte; details: red blood cells (erythrocytes), dose <=32 µg/ml, read-out: Activity
assay_metric: hemolysis at 1 h (%)

>>> print(df.to_string())
                              line_notation      assay_metric  numeric_readout
0  CC(C)CCOc1ccc(-c2ccccc2OCc2cn(C[C@@H](CCCCN)NC(=O)[C@@H](CCCNC(=N)N)n3cc(CC4CCCCC4)nn3)nn2)cc1.Cl.Cl  hemolysis at 1 h               41
1  CC(C)CCOc1ccccc1-c1ccccc1OCc1cn(C[C@@H](CCCCN)NC(=O)[C@@H](CCCNC(=N)N)n2cc(CC3CCCCC3)nn2)nn1.Cl.Cl  hemolysis at 1 h               56
2  CC(C)CCOc1ccccc1-c1ccc(OCc2cn(C[C@@H](CCCCN)NC(=O)[C@@H](CCCNC(=N)N)n3cc(CC4CCCCC4)nn3)nn2)cc1.Cl.Cl  hemolysis at 1 h               82
3  CC(C)CCOc1cccc(-c2cccc(OCc3cn(C[C@@H](CCCCN)NC(=O)[C@@H](CCCNC(=N)N)n4cc(CC5CCCCC5)nn4)nn3)c2)c1.Cl.Cl  hemolysis at 1 h               94
4  CC(C)CCOc1ccc(-c2cccc(OCc3cn(C[C@@H](CCCCN)NC(=O)[C@@H](CCCNC(=N)N)n4cc(CC5CCCCC5)nn4)nn3)c2)cc1.Cl.Cl  hemolysis at 1 h              102
5  CC(C)CCOc1cccc(-c2ccc(OCc3cn(C[C@@H](CCCCN)NC(=O)[C@@H](CCCNC(=N)N)n4cc(CC5CCCCC5)nn4)nn3)cc2)c1.Cl.Cl  hemolysis at 1 h               88

====

Recorded CC50 at 23 h values for a group of compounds are listed next.
test: Cytotoxicity against human HEK-293 cells incubated for 23 hrs by CO-ADD method; type: cell-based, HEK293
assay_metric: CC50 at 23 h

                                   compound      result
0  CC(C)CCOc1ccc(-c2ccccc2OCc2cn(C[C@@H](CCCCN)NC(=O)[C@@H](CCCNC(=N)N)n3cc(CC4CCCCC4)nn3)nn2)cc1.Cl.Cl  > 32 µg/mL
1  CC(C)CCOc1ccc(-c2cccc(OCc3cn(C[C@@H](CCCCN)NC(=O)[C@@H](CCCNC(=N)N)n4cc(CC5CCCCC5)nn4)nn3)c2)cc1.Cl.Cl  > 32 µg/mL
2  CC(C)CCOc1ccc(-c2ccc(OCc3cn(C[C@@H](CCCCN)NC(=O)[C@@H](CCCNC(=N)N)n4cc(CC5CCCCC5)nn4)nn3)cc2)cc1.Cl.Cl  > 32 µg/mL
3  CC/C(=C(\c1ccccc1)c1ccc(OCCN(C)C)cc1)c1ccccc1 [TAMOXIFEN]     9 µg/mL

====

assay: Hemolytic activity in sheep RBC assessed as hemolysis at 5 microg/ml incubated for 2 hrs by CO-ADD method; type: ADME, cell-based, Ovis aries, Erythrocyte; conditions: red blood cells (erythrocytes), at 5 µg/mL, read-out: Activity
Measured hemolysis at 2 h, 5 microg/ml accompanies every entry in the list below.
assay_metric: hemolysis at 2 h, 5 microg/ml (%)

>>> print(df.to_string())
                              line_notation  numeric_readout
0  CC(C)CCOc1cccc(-c2cccc(OCc3cn(C[C@@H](CCCCN)NC(=O)[C@@H](CCCNC(=N)N)n4cc(CC5CCCCC5)nn4)nn3)c2)c1.Cl.Cl              3.7
1  CC(C)CCOc1cccc(-c2ccccc2OCc2cn(C[C@@H](CCCCN)NC(=O)[C@@H](CCCNC(=N)N)n3cc(CC4CCCCC4)nn3)nn2)c1.Cl.Cl              2.6
2  CC(C)CCOc1cccc(-c2ccc(OCc3cn(C[C@@H](CCCCN)NC(=O)[C@@H](CCCNC(=N)N)n4cc(CC5CCCCC5)nn4)nn3)cc2)c1.Cl.Cl              2.1
3  CC(C)CCOc1ccccc1-c1ccc(OCc2cn(C[C@@H](CCCCN)NC(=O)[C@@H](CCCNC(=N)N)n3cc(CC4CCCCC4)nn3)nn2)cc1.Cl.Cl                2
4  CC(C)CCOc1ccccc1-c1cccc(OCc2cn(C[C@@H](CCCCN)NC(=O)[C@@H](CCCNC(=N)N)n3cc(CC4CCCCC4)nn3)nn2)c1.Cl.Cl              1.4
5  CC(C)CCOc1ccc(-c2ccc(OCc3cn(C[C@@H](CCCCN)NC(=O)[C@@H](CCCNC(=N)N)n4cc(CC5CCCCC5)nn4)nn3)cc2)cc1.Cl.Cl              1.4
6  CC(C)CCOc1ccccc1-c1ccccc1OCc1cn(C[C@@H](CCCCN)NC(=O)[C@@H](CCCNC(=N)N)n2cc(CC3CCCCC3)nn2)nn1.Cl.Cl              2.1
7  CC(C)CCOc1ccc(-c2cccc(OCc3cn(C[C@@H](CCCCN)NC(=O)[C@@H](CCCNC(=N)N)n4cc(CC5CCCCC5)nn4)nn3)c2)cc1.Cl.Cl              2.3
8  CC(C)CCOc1ccc(-c2ccccc2OCc2cn(C[C@@H](CCCCN)NC(=O)[C@@H](CCCNC(=N)N)n3cc(CC4CCCCC4)nn3)nn2)cc1.Cl.Cl              2.7
